system: NCI-H1048 cells; experiment: MTT proliferation assay, NCI-H1048; format: cell-based; details: 5 days compound exposure, 1:3 serial dilution starting at 10 μM;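 also: Dose-response in 96-well plates over 8 or 10 concentration points, with exposure spanning 3-4 cell doublings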
*1 amine or outer side, *2 acyl side, *3 side chain or, on linkers, in order; H or OH if unused. Where a SMILES comes first, the peptide text is derived from it. Bridges are numbered along the chain shown (N, C = ends). [ ]: non-standard residue; d: D form. The star is where a group is joined. X120 = CN([C@@H](Cc1cc(Cl)ccc1-c1ccn(S(C)(=O)=O)c1)C(=O)[*:2])[*:1]; X58 = CC(C)C(=O)N1CC=C(c2ccc(Cl)cc2C[C@@H](C(=O)[*:2])N(C)[*:1])CC1; NMehhhLys(Me) = CN([C@@H](CCCCCCCN(C)[*:3])C(=O)[*:2])[*:1]; NMe(hhhLys) = CN([C@@H](CCCCCCCN[*:3])C(=O)[*:2])[*:1]; cBuCO(3,3-F2-1-CF3) = O=C(C1(C(F)(F)F)CC(F)(F)C1)*; Pro(trans-4-F) = O=C(O)[C@@H]1C[C@@H](F)CN1; Gly(cPr) = N[C@H](C(=O)O)C1CC1
A collection of compounds and their measured GI50
# output: numeric value plus its unit

The compound identified as CC(C)C[C@@H]1NC(=O)[C@@H](N(C)C(=O)[C@@H](NC(=O)[C@@H]2C[C@@H](F)CN2C(=O)C2(C(F)(F)F)CC(F)(F)C2)C2CC2)CCCCCCCN(C)C(=O)[C@H](Cc2cc(Cl)ccc2-c2ccn(S(C)(=O)=O)c2)N(C)C1=O [Example 307] ({cBuCO(3,3-F2-1-CF3)}-[Pro(trans-4-F)][Gly(cPr)][NMehhhLys(Me)]L[X120]; lactam 3-C) registered its GI50 at 10 nM

The compound identified as CC(C)C[C@@H]1NC(=O)[C@@H](N(C)C(=O)[C@@H](NC(=O)[C@@H]2C[C@@H](F)CN2C(=O)C2(C(F)(F)F)CC(F)(F)C2)C2CC2)CC=CCCCCNC(=O)[C@H](Cc2cc(Cl)ccc2-c2cccc(Cl)c2)N(C)C1=O [Example 19] registered its GI50 at 550 nM

The compound identified as CC(C)C[C@@H]1NC(=O)[C@@H](N(C)C(=O)[C@@H](NC(=O)[C@@H]2C[C@@H](F)CN2C(=O)C2(C(F)(F)F)CC(F)(F)C2)C2CC2)CCCCCCCNC(=O)[C@H](Cc2cc(Cl)ccc2C2=CCN(C(=O)C(C)C)CC2)N(C)C1=O [Example 98] ({cBuCO(3,3-F2-1-CF3)}-[Pro(trans-4-F)][Gly(cPr)][NMe(hhhLys)]L[X58]; lactam 3-C) registered its GI50 at 20 nM
